- Tested on: Leishmania amazonensis
- protocol summary: Leishmanicidal activity against promastigote form of Leishmania amazonensis MHOM/BR/71973/M2269 after 72 hrs by cell counting
- Assay type: functional, organism-based
- study conditions: MHOM/BR/71973/M2269, 72 h
Overview of recorded IC50 for various compounds
value type: IC50

{"structure string": "N=C(N)c1ccc(OCCCCCOc2ccc(C(=N)N)cc2)cc1", "recorded value": "0.44 mg/L"}
{"structure string": "CC(C)=CCOc1ccc(C(=O)c2ccc(OCC=C(C)C)cc2)cc1", "recorded value": "5.94 mg/L"}
{"structure string": "COc1ccc(C(=O)c2ccccc2)cc1", "recorded value": "5.05 mg/L"}
{"structure string": "CCCCOc1ccc(C(=O)c2ccccc2)c(O)c1", "recorded value": "9.8 mg/L"}
{"structure string": "CC(C)=CCOc1ccc(C(=O)c2ccccc2)cc1", "recorded value": "7.82 mg/L"}
